- target: T1, TIGIT (T cell immunoreceptor with Ig and ITIM domains) (human, UniProt Q495A1 22-141, limits assumed)
- T1 construct: also called hTIGIT; human TIGIT
- T1 sequence (looked up): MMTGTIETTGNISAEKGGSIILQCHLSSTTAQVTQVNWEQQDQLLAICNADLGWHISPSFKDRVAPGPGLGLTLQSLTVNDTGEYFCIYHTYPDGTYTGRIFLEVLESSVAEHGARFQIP
- experiment: SPR, VHH-V5-His
outcome_measure: Kd (nM)

1 = TIGIT-30-52 VHH-V5-His (VHH, not shown: V5-His tag) VHH: EVQLVESGGGLVQAGGSLRLSCAASGRTFSNYFMGWFRQAPGKERESVATVTWRDNITYYADSVKGRFTISADNAKNTVYLQMNSLKPEDTAVYYCASAGRWGQGTQVTVSS
2 = TIGIT-30-30 VHH-V5-His (VHH, not shown: V5-His tag) VHH: EVQLVESGGGLVQAGGSLRLSCAASGGTFSGRGMGWFRQAPGKEREWVSSVYIFGGSTYYADSVKGRFTISADNAKNTVYLQMNSLKPEDTAVYYCANSNKPKFDWGQGTQVTVSS
3 = TIGIT-29-33 VHH-V5-His (VHH, not shown: V5-His tag) VHH: EVQLVESGGGLVQAGGSLRLSCAASGFIFSTYAMGWFRQAPGKERELVSAITRSGITTYYADSVKGRFTISADNAKNTVYLQMNSLKPEDTAVYYCAAAAWTIYEYDYWGQGTQVTVSS
4 = TIGIT-29-06 VHH-V5-His (VHH, not shown: V5-His tag) VHH: EVQLVESGGGLVQAGGSLRLSCAASGGTFRSYVMGWFRQAPGKEREWVATINSSGSRTYYADSVKGRFTISADNAKNTVYLQMNSLKPEDTAVYYCAARPNYRDYEYWGQGTQVTVSS
*Q* // TODO: order the 4 binders above by Kd, descending Reply with the item labels sorted in the order that was asked for.
*A* 4, 1, 3, 2
(4: 433000 nM, 1: 4240 nM, 3: 1520 nM, 2: 387 nM)
